Where do the numbers come from? From patent US6306860A.

Here the recorded inhibition at 0.1 µg/mL is given for each entry.
measured-target: HIV reverse transcriptase (Human immunodeficiency virus type 1 group M subtype B, UniProt P04585)
Construct: purchased Boehringer Mannheim
assay-remarks: In vitro inhibition test against HIV reverse transcriptase
Assay type: biochemical
condition-notes: 0.1 μg/ml; read-out: Inhibitory activity of HIV-RT (%)
Please state the figure in %; there is no need to write the unit.

Some molecules with recorded inhibition at 0.1 µg/mL:
molecule: CC(C)Nc1cccnc1N1CCN(C(=O)c2ccc(C(=O)Nc3ncccc3O)cn2)CC1
unit-tag: %
inhibition at 0.1 µg/mL: 47

molecule: CC(C)Nc1cccnc1N1CCN(C(=O)c2ccc(C(=O)Nc3nncs3)cn2)CC1
unit-tag: %
inhibition at 0.1 µg/mL: 35

molecule: CC(C)Nc1cccnc1N1CCN(C(=O)c2ccc(C(=O)NCC3CCCO3)cn2)CC1 (centres unmarked)
unit-tag: %
inhibition at 0.1 µg/mL: 59

Prompt: Name the recorded inhibition at 0.1 µg/mL of the item CC(C)Nc1cccnc1N1CCN(C(=O)c2ccc(C(=O)Nc3ccccn3)cn2)CC1 in your answer.
Completion: 55

Prompt: Name the recorded inhibition at 0.1 µg/mL of the item CC(C)CNc1cccnc1N1CCN(C(=O)c2ccc(C(=O)NC3CC3)cn2)CC1 in your answer.
Completion: 60

----------
measured-target: HIV reverse transcriptase (Human immunodeficiency virus type 1 group M subtype B, UniProt P04585)
Construct: purchased Boehringer Mannheim
assay-remarks: In vitro inhibition test against HIV reverse transcriptase
Format: biochemical
condition-notes: 1 μg/ml; read-out: Inhibitory activity of HIV-RT (%)
metric: inhibition at 1 µg/mL (%)
Please state the figure in %; there is no need to write the unit.

line-notation: Cc1cc(NC(=O)c2ccc(C(=O)N3CCN(c4ncccc4NC(C)C)CC3)nc2)no1
measured-value: 58
--
line-notation: CC(C)Nc1cccnc1N1CCN(C(=O)c2ccc(C(=O)NCc3ccccn3)cn2)CC1
measured-value: 73
--
line-notation: CC(C)Nc1cccnc1N1CCN(C(=O)c2ccc(C(=O)Nc3nncs3)cn2)CC1
measured-value: 67

Now take the following compound into account.
Prompt: Name the recorded inhibition at 1 µg/mL of the item CC(C)Nc1cccnc1N1CCN(C(=O)c2ccc(C(=O)NCc3ccco3)cn2)CC1 in your answer.
Completion: 54

----------
measured-target: HBV polymerase (Hepatitis B virus genotype D subtype ayw)
Construct: made in house; host or cells: E. coli
Sequence (P03156 whole entry): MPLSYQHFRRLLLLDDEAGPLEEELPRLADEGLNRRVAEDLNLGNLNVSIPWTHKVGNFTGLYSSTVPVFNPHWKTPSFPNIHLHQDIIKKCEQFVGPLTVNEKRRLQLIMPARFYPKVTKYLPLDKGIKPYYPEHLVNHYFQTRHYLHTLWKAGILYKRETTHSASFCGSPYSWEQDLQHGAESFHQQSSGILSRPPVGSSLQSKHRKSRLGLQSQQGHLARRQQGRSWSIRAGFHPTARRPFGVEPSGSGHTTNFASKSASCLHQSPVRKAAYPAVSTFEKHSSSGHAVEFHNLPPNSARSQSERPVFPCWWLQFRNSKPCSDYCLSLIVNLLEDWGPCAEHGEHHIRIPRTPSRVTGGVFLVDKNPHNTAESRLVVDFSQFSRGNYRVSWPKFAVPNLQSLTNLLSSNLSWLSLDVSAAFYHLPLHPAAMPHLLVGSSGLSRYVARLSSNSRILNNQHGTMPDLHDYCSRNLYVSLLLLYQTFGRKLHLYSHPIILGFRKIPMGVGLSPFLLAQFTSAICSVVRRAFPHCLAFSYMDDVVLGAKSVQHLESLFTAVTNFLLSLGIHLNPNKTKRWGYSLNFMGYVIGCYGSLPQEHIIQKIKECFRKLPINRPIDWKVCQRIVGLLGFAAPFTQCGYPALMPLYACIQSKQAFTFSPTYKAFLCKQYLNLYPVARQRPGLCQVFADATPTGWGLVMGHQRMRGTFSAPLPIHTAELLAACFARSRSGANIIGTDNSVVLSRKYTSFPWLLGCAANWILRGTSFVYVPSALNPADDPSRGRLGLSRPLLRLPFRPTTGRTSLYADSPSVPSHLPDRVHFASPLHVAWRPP
assay-remarks: Inhibitory activities against HBV polymerase (reverse transcriptase activity) in vitro
Format: biochemical
condition-notes: 0.1 μg/ml; read-out: Inhibitory activity of HBV-RT (%)
metric: inhibition at 0.1 µg/mL (%)
Please state the figure in %; there is no need to write the unit.

line-notation: CCN(CC)C(=O)c1ccc(C(=O)N2CCN(c3ncccc3NC(C)C)CC2)nc1
inhibition at 0.1 µg/mL, %: 62

line-notation: O=C(NCCN1CCOCC1)c1ccc(C(=O)N2CCN(CCO)CC2)nc1
inhibition at 0.1 µg/mL, %: 56

Prompt: Report inhibition at 0.1 µg/mL on HBV polymerase (Hepatitis B virus genotype D subtype ayw) for this entry: O=C(NCc1ccco1)c1ccc(C(=O)N2CCN(CCO)CC2)nc1
Completion: 54

----------
Here the recorded inhibition at 0.01 µg/mL is given for each entry.
measured-target: HBV polymerase (Hepatitis B virus genotype D subtype ayw)
Construct: made in house; host or cells: E. coli
assay-remarks: Inhibitory activities against HBV polymerase (reverse transcriptase activity) in vitro
Type: biochemical
condition-notes: 0.01 μg/ml; read-out: Inhibitory activity of HBV-RT (%)

Some molecules with recorded inhibition at 0.01 µg/mL:
molecule: CC(C)Nc1cccnc1N1CCN(C(=O)c2ccc(C(=O)NCCCO)cn2)CC1
measured-target: HBV polymerase (Hepatitis B virus genotype D subtype ayw)
measured-value: 49%

molecule: COCC(C)NC(=O)c1ccc(C(=O)N2CCN(c3ncccc3NC(C)C)CC2)nc1 (centres unmarked)
measured-target: HBV polymerase (Hepatitis B virus genotype D subtype ayw)
measured-value: 50%

molecule: CC(C)Nc1cccnc1N1CCN(C(=O)c2ccc(C(=O)NCCCn3ccnc3)cn2)CC1
measured-target: HBV polymerase (Hepatitis B virus genotype D subtype ayw)
measured-value: 65%

molecule: CC(C)NC(=O)c1ccc(C(=O)N2CCN(CCO)CC2)nc1
measured-target: HBV polymerase (Hepatitis B virus genotype D subtype ayw)
measured-value: 52%

molecule: CC(C)Nc1cccnc1N1CCN(C(=O)c2ccc(C(=O)NC(C)(C)CO)cn2)CC1
measured-target: HBV polymerase (Hepatitis B virus genotype D subtype ayw)
measured-value: 62%

molecule: Cc1cc(NC(=O)c2ccc(C(=O)N3CCN(c4ncccc4NC(C)C)CC3)nc2)n[nH]1
measured-target: HBV polymerase (Hepatitis B virus genotype D subtype ayw)
measured-value: 20%

molecule: COCCCNC(=O)c1ccc(C(=O)N2CCN(c3ncccc3NCC(C)C)CC2)nc1
measured-target: HBV polymerase (Hepatitis B virus genotype D subtype ayw)
measured-value: 20%

molecule: COCCCNC(=O)c1ccc(C(=O)N2CCN(c3ncccc3NC(C)C)CC2)nc1
measured-target: HBV polymerase (Hepatitis B virus genotype D subtype ayw)
measured-value: 28%

molecule: CC(C)NC(=O)c1ccc(C(=O)N2CCN(c3ncccc3N)CC2)nc1
measured-target: HBV polymerase (Hepatitis B virus genotype D subtype ayw)
measured-value: 43%

molecule: CC(C)Nc1cccnc1N1CCN(C(=O)c2ccc(C(=O)NC3CCCC3)cn2)CC1
measured-target: HBV polymerase (Hepatitis B virus genotype D subtype ayw)
measured-value: 39%

Prompt: Name the recorded inhibition at 0.01 µg/mL of the item CC(C)Nc1cccnc1N1CCN(C(=O)c2ccc(C(=O)N(C)CC3OCCO3)cn2)CC1 in your answer.
Completion: 39%
